Attribution: ChEMBL document CHEMBL3045337

System: Liver
Assay: Antioxidant activity in Rattus norvegicus (rat) liver homogenate assessed as inhibition of lipid peroxidation measuring TBARS production at 10 '-3 M after 1 hr by spectrophotometry relative to control
Format: functional, tissue-based
I'd be grateful if you could share measured inhibition for these entries.

>  <SMILES INPUT>
CCCCCNC(=O)CCc1c[nH]c2ccccc12

>  <EXPERIMENTAL VALUE>
25%

$$$$
>  <SMILES INPUT>
COc1ccc2[nH]cc(CCNC(C)=O)c2c1

>  <EXPERIMENTAL VALUE>
28%

$$$$
>  <SMILES INPUT>
Cc1c(C)c2c(c(C)c1O)CC[C@@](C)(CCC[C@H](C)CCC[C@H](C)CCCC(C)C)O2

>  <EXPERIMENTAL VALUE>
27%

$$$$
>  <SMILES INPUT>
CCCNC(=O)CCc1c[nH]c2ccccc12

>  <EXPERIMENTAL VALUE>
28%

$$$$
>  <SMILES INPUT>
CCN(CC)CCCNC(=O)CCc1c[nH]c2ccccc12

>  <EXPERIMENTAL VALUE>
31%

$$$$
>  <SMILES INPUT>
COC(=O)CCc1c[nH]c2ccccc12

>  <EXPERIMENTAL VALUE>
56%

$$$$

Dear colleague, could you please provide inhibition for the molecules listed below?
1. CN(C)CCCNC(=O)CCc1c[nH]c2ccccc12
2. CN(C)CCNC(=O)CCc1c[nH]c2ccccc12
3. CCN(CC)CCNC(=O)CCc1c[nH]c2ccccc12

1. 27%
2. 28%
3. 26%

Output measured inhibition for this item: CCCCNC(=O)CCc1c[nH]c2ccccc12
28%
